What growth inhibition was measured for each of the following?
experiment: NCI Yeast Anticancer Drug Screen. Data for the sgs1 strain (AID 173);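 note: 0% = growth of vehicle-only control cultures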; details: S. cerevisiae sgs1 mutant, at 100.0 µM, hits give high values
This is part of a sample that, as a whole, favours compounds with a hit. Of some 79,000 tested, about 15% had one in any assay.
Enter your answer as a number in %; do not include the unit.

Quick one: growth inhibition of CC1=C(CO)C2=C(C)C3(CC3)[C@@](C)(O)C(=O)C2=C1 ?
78

Repeat with C=CC[N+]12CN3CN(CN(C3)C1)C2
43

Repeat with O=C(COc1ccc(Cl)cc1Cl)NO
98

Repeat with CC1=C2C(=C[C@@](C)(CO)[C@@H]2O)C(=O)[C@](C)(O)C12CC2
73

Repeat with O=C(O)CCCc1cc(I)c(N(CCCl)CCCl)c(I)c1
96

Repeat with CCCCN(CCCC)CC(C(C)=O)C(c1ccccc1)c1c(O)c2ccccc2oc1=O (stereo unspecified)
9
